# Protocol details: Bioassay of I-123-labeled compounds: organ distribution of activity 5 minutes after tail vein injection
# Format: in vivo, Female Sprague-Dawley rats
# Condition info: rat, in vivo, iv, i.v. tail vein, 5 min post injection, brain, I-123 label, read-out: Percent Dose/g. at 5 min., Brain
Recorded metric: tissue uptake at 5 min (%ID/g)
Kindly answer with a numeric value in %ID/g, unit omitted.

Task: tissue uptake at 5 min for O=C(Nc1ccccc1)c1ccccc1[123I] [Example 6, o-iodobenzanilide] ?
Output: 0.84

* * *

# Protocol details: Bioassay of I-123-labeled compounds: organ distribution of activity 5 minutes after tail vein injection
# Assay type: in vivo, Female Sprague-Dawley rats
# Condition info: rat, in vivo, iv, Percent Dose/g. at 5 min., Blood
Entries and their measured tissue uptake at 5 min follow.
Answer format: number, then unit.

Consider the following illustrative entries.
O=C(NNc1ccccc1)c1ccccc1[123I] [Example 13, o-iodobenzphenylhydrazide] :: 1.99 %ID/g
CNC(=O)c1ccccc1[123I] [Example 1, N-methyl-o-iodobenzamide] :: 0.86 %ID/g
NC(=O)CNC(=O)c1ccccc1[123I] [Example 12, o-iodohippuramide] :: 0.84 %ID/g
O=C(NCc1ccccc1)c1ccccc1[123I] [Example 8, N-benzyl-o-iodobenzamide] :: 0.68 %ID/g
CN(C)C(=O)c1ccccc1[123I] [Example 10, N, N-dimethyl-o-iodobenzamide] :: 2.15 %ID/g
CCCCCCCCCCCCCCCCCCNC(=O)c1ccccc1[123I] [Example 5, N-octadecyl-o-iodobenzamide] :: 0.91 %ID/g

Task: tissue uptake at 5 min for NC(=O)c1ccccc1[123I] [Example 2, o-iodobenzamide] ?
Output: 0.69 %ID/g

Task: tissue uptake at 5 min for O=C(NCCc1ccccc1)c1ccccc1[123I] [Example 9, N-phenethyl-o-iodobenzamide] ?
Output: 0.43 %ID/g

Task: tissue uptake at 5 min for Cc1cccc(C)c1NC(=O)c1ccccc1[123I] [Example 7, o-iodobenz-2,6-xylidide] ?
Output: 0.69 %ID/g

Task: tissue uptake at 5 min for O=C(NO)c1ccccc1[123I] [Example 14, o-iodobenzohydramic acid] ?
Output: 0.95 %ID/g

Task: tissue uptake at 5 min for CCCCCCNC(=O)c1ccccc1[123I] [Example 3, N-hexyl-o-iodobenzamide] ?
Output: 0.56 %ID/g
